Values compiled from PubChem BioAssay (NCI).

tested on: OVCAR-4 ovarian; experiment: NCI-60 one-dose screen, 48 h (100 = growth as untreated, 0 = no growth, -100 = all killed); conditions: 10 µM unless noted
About 83,000 compounds went through this panel and 20% of them were active in at least one assay; those are over-represented in the sample as a whole.
outcomeMeasure: growth (%)
The answer is to be given in %; state only the numeric part.

CCC(CC)n1c(=O)c(SC2=NC3C(NN2)N(CC)C(=O)N3CC)c(C(=O)O)c2ccccc21 (centres undefined)	65
COc1ccc(/C=C/C(=O)c2nnn(-c3ccc(Br)cc3)c2C)cc1OC	71.6
CN1CCN(c2ccc3c(C(N)=O)c(NC(=O)c4ccc(C(C)(C)C)cc4)sc3c2)CC1	92.3

Exercise: Please respond with reported growth (system OVCAR-4 ovarian) for CC(C)=CCc1c2c(c(O)c3c1O[C@]14C(=C[C@@H]5C[C@H]1C(C)(C)O[C@@]4(C/C=C(/C)C(=O)O)C5=O)C3=O)CC(O)C(C)(C)O2 (some centres undefined) .
Solution: 18.7

Exercise: Give growth; test system OVCAR-4 ovarian; compound ClC(Cl)c1nc(-c2cccs2)n2nc(-c3ccccc3)cc2n1
Solution: 10.7

Exercise: For OVCAR-4 ovarian, give growth of the listed compound: COc1cc(/C=C2\SC(=O)NC2=O)ccc1OCC(=O)Nc1ccc(C(=O)/C=C/c2cc3ccccc3nc2Cl)cc1
Solution: 52.9

Exercise: Enter recorded growth with OVCAR-4 ovarian for C=C1C(=O)O[C@@H]2C[C@@H](C)[C@H](OC)CC(=O)[C@](C)(OC(C)=O)C[C@H](OC(=O)/C(C)=C\C)[C@@H]12 here.
Solution: 82.3

Exercise: # return growth for CN1CCN(Cc2ccc(NC(=O)c3cncc(C#Cc4[nH]nc5ncncc45)c3)cc2C(F)(F)F)CC1 , test system: OVCAR-4 ovarian
Solution: 88.5

Exercise: Please tell me the measured growth for Cc1cc(F)cc(NS(=O)(=O)c2ccc(-c3cnc(C4CC4)o3)cc2)c1 ; system: OVCAR-4 ovarian.
Solution: 49.6

Exercise: Give growth; test system OVCAR-4 ovarian; compound NC(=O)c1c(NC(=O)c2cccc(C(F)(F)F)c2F)sc2c1CCC(=O)C2
Solution: 6.91
